Test summary: small-molecule binders of probe aLefty1, primary screen, biochemical, small-molecule microarray, 635/667 nm fluorescence (AID 1153);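 further: score merges spot fluorescence with signal-to-noise ratio from the scanned slide images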
Condition parameters: higher = more signal
Give measured composite z-score for each item. Keep answers brief.
Answer using only a numeral; do not append any unit.

Determine from records and report composite z-score for "COC(=O)[C@@]1(Cc2ccc(F)cc2)[C@H]2c3cc(C(=O)N4CCCC4)n(CC4CC4)c3C[C@H]2CN1C(=O)c1ccccc1"
1.56

Determine from records and report composite z-score for "[N-]=[N+]=Nc1ccccc1C[C@]1(C(=O)O)N=C(c2ccc(OCCCO)cc2)O[C@H]1c1ccccc1N=[N+]=[N-]"
0.612

Determine from records and report composite z-score for "CN(C)CCCC[C@@H]1NC(=O)[C@@H]2C[C@H](C(=O)O)[C@H](c3cccc(OCCO)c3)N2C1=O"
-0.147

Determine from records and report composite z-score for CCN(CC)c1ccc(N2CC=CC34O[C@@H]5/C=C\CCC(C)OC(=O)C5[C@H]3C(=O)N(C(C)CO)[C@@H]4C2=O)cc1 (stereo partly drawn)
-0.196

Determine from records and report composite z-score for "COc1ccc([Si](C)(C)[C@@H]2[C@@H](CCn3cc([C@H](O)c4ccccc4)nn3)O[C@]3(C(=O)N(c4ccccc4)c4ccccc43)[C@H]2C)cc1"
-0.348

Determine from records and report composite z-score for "COC(=O)c1c2oc(c1C(=O)OC)C(=O)N1CCC[C@H]1Cn1nncc1CN(Cc1ccccc1)C(=O)N[C@H](CO)CC2"
0.0429

Determine from records and report composite z-score for CC(C)c1ccc(NN2C(C(O)Cc3ccccc3)C=CC3C(=O)N(c4ccccc4)C(=O)C32)cc1 (stereo not drawn)
0.181

Determine from records and report composite z-score for "NC(=O)[C@H]1[C@@H]2C(=O)O[C@@H](c3ccccc3)[C@@H](c3ccccc3)N2[C@@H](c2ccc(O)cc2)[C@]12C(=O)Nc1ccccc12"
-0.18

* * *

Assayed target: Fibroblast growth factor 2 (Homo sapiens) (UniProt P09038)
Sequence (P09038 whole entry, looked up): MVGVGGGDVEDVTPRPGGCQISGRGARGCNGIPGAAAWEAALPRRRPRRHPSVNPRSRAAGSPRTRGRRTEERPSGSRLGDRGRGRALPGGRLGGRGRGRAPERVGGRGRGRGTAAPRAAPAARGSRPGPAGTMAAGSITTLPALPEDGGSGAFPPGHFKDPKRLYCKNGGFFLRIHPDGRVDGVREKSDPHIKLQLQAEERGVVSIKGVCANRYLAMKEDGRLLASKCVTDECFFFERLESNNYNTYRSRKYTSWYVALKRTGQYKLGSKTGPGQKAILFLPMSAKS
Test summary: FGF2 binders on small-molecule microarrays, primary screen, biochemical, small-molecule microarray, 635/667 nm fluorescence (AID 1133)
Condition parameters: small-molecule microarray binding, FGF2, fluorescence 635/667; higher = more signal
Quantity measured: composite z-score
Answer using only a numeral; do not append any unit.

Determine from records and report composite z-score for "COC(=O)[C@@]1(Cc2ccc(OC)cc2)[C@H]2c3cc(C(=O)N4CCCC4)n(Cc4cc(C)n(C)n4)c3C[C@H]2CN1C(=O)c1ccccc1"
-0.622

Determine from records and report composite z-score for "C=CC[C@H](OC(=O)Nc1ccc(SC)cc1)c1ccc(OCCO)cc1"
0.144

Determine from records and report composite z-score for "C=C(CCCC)C(=O)CC[C@H](OC(C)=O)c1ccc(OCCO)cc1"
-0.271

Determine from records and report composite z-score for "C=C/C=C/[C@@H]1C(=C)CN([C@@H](Cc2ccccc2)C(=O)OC)[C@H]1[C@@H](O)Cc1ccccc1"
0.227

Determine from records and report composite z-score for "C=C[C@@H](OC)[C@H](OC(=O)Nc1ccc(SC)cc1)c1ccc(OCCO)cc1"
0.377

Determine from records and report composite z-score for "COCCOC(=O)N1C(=O)[C@@]2(c3cc(C#CCCO)ccc31)[C@H](c1ccccc1OCCO)N1[C@H](c3ccccc3)[C@H](c3ccccc3)OC(=O)[C@H]1[C@@H]2C(=O)N1CCCCCCC1"
1.58

Determine from records and report composite z-score for C=C(C)C1CCC(C(O)C2C=CC3C(=O)N(C)C(=O)C3N2Nc2cc(OC)c(OC)c(OC)c2)CC1 (centres undefined)
0.425

Determine from records and report composite z-score for "CCOC(=O)C1=CC[C@@H](c2ccccc2)N(S(=O)(=O)c2ccc(C)cc2)[C@H]1C=Cc1ccccc1"
-0.463

Determine from records and report composite z-score for CCC(CC)C(O)C1C=CC2C(=O)N(c3ccccc3)C(=O)C2N1Nc1ccc([N+](=O)[O-])cc1 (centres undefined)
-0.348

* * *

Give measured z-score for each item. Keep answers brief.
Test summary: modulators of HCV replicon luciferase signal, primary screen, HCV replication inhibitor project, Huh7 cells, luciferase reporter (AID 1109);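 further: huh7 hepatoma cells harbouring a luciferase neomycin HCV replicon reporter; luciferase luminescence as measure of HCV replicon replication; test concentration not given here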
Condition parameters: 48 h, higher = more signal
Answer using only a numeral; do not append any unit.

Determine from records and report z-score for "O=C1O[C@H](c2ccccc2)[C@H](c2ccccc2)N2[C@H]1[C@@H](C(=O)O)[C@]1(C(=O)Nc3ccc(C#CC4(O)CCCCCC4)cc31)[C@H]2c1ccc(O)cc1"
-0.772

Determine from records and report z-score for "CC(C)C[C@@H]1NC(=O)[C@@H]2C[C@H](C(=O)NCCCCCC[N+](C)(C)C)[C@H](c3cccc(OCCO)c3)N2C1=O"
-0.926

Determine from records and report z-score for "COCCOC(=O)N1C(=O)[C@@]2(c3ccccc31)[C@H](c1ccccc1OCCO)N1[C@H](c3ccccc3)[C@H](c3ccccc3)OC(=O)[C@H]1[C@@H]2C(=O)N1CCCCCCC1"
-3.17

Determine from records and report z-score for COC(=O)C1=CC(CCCO)=CC(c2ccc(CN3CCCC3)cc2)N(Cc2cc3c(cc2Br)OCO3)C=C1C(=O)OC (stereo unspecified)
-0.803

Determine from records and report z-score for O=C1NC(=O)C2C1C=CC(C(O)c1ccccn1)N2Nc1ccc(Cl)cc1Cl (stereo unspecified)
0.812

Determine from records and report z-score for COc1cc2c(cc1O)C(c1cccs1)N(Cc1sc3ccccc3c1Cl)CC2 (stereo unspecified)
-1.7
